test: Phase 1/2 clinical study, plasma pharmacokinetic evaluation; type: in vivo, human; conditions: human, plasma, oral, 40 mg, 40 mg BID Arm B, C1D1, N=4, mean; read-out: t1/2 (converted)
QUANTITY: half-life (h)
Your answer is read as h, so omit the unit and give the number.

Data request, read-out half-life, for `C=C1C[C@@H]2CC[C@H]1[C@@H](C(=O)N1CCC3(CC1)CN(c1ncncc1Oc1ccc(F)cc1C(=O)N(C(C)C)C(C)C)C3)N2`
4.41

====

Assay: Phase 1/2 clinical study, plasma pharmacokinetic evaluation
Assay type: in vivo, human
Settings: human, plasma, oral, 80 mg, 80 mg BID Arm A, C1D1, N=4, mean; read-out: t1/2 (converted)
Experimental: In the present test of the present compound, PK samples have been collected in up to 24 patients dosed in dose groups of 40, 80, 100, and 120 mg BID Arm A, and in dose groups of 40 and 60 mg BID Arm B (Table 6). Large preliminary PK inter-patient variability was observed. (1) In the present study, PK samples have been collected in up to 42 patients dosed in dose groups of 40, 80, 100, 120, 140 and 200 mg BID Arm A, and in dose groups of 40, 60, 100, and 200 mg BID Arm B (Table 15). […]
QUANTITY: half-life (h)
Return type: number; implicit unit h.

Item `C=C1C[C@@H]2CC[C@H]1[C@@H](C(=O)N1CCC3(CC1)CN(c1ncncc1Oc1ccc(F)cc1C(=O)N(C(C)C)C(C)C)C3)N2` has what recorded half-life?
2.82

====

assay: Phase 1/2 clinical study, plasma pharmacokinetic evaluation; format: in vivo, human; details: human, plasma, oral, Arm A, 40-300 mg BID; read-out: Mean apparent half-life
QUANTITY: half-life

What value of half-life has been recorded for this entry: `C=C1C[C@@H]2CC[C@H]1[C@@H](C(=O)N1CCC3(CC1)CN(c1ncncc1Oc1ccc(F)cc1C(=O)N(C(C)C)C(C)C)C3)N2`
2 to 4 h

====

assay: Phase 1/2 clinical study, plasma pharmacokinetic evaluation; type: in vivo, human; settings: human, plasma, oral, 300 mg, Cycle 2 Day 1; 300 mg BID Arm A (without azole); N=3; mean
QUANTITY: AUC(0-t) (ng·h/mL)
Number in ng·h/mL, nothing else.

Which AUC(0-t) is reported for this compound? `C=C1C[C@@H]2CC[C@H]1[C@@H](C(=O)N1CCC3(CC1)CN(c1ncncc1Oc1ccc(F)cc1C(=O)N(C(C)C)C(C)C)C3)N2`
12400

====

test: Phase 1/2 clinical study, plasma pharmacokinetic evaluation; assay type: in vivo, human; conditions: human, plasma, oral, 40 mg, Cycle 1 Day 1; 40 mg BID Arm B (with azole); N=4; mean
QUANTITY: Cmax (ng/mL)
Provide the reading as a plain figure in ng/mL.

Which measured Cmax value corresponds to `C=C1C[C@@H]2CC[C@H]1[C@@H](C(=O)N1CCC3(CC1)CN(c1ncncc1Oc1ccc(F)cc1C(=O)N(C(C)C)C(C)C)C3)N2` ?
976

====

assay: Phase 1/2 clinical study, plasma pharmacokinetic evaluation; assay type: in vivo, human; details: human, plasma, oral, 80 mg, Cycle 1 Day 1; 80 mg BID Arm A (without azole); N=4; mean
QUANTITY: AUC(0-t) (ng·h/mL)
Dear colleague, please return just the value in ng·h/mL, with no unit written.

Endpoint output: AUC(0-t) of `C=C1C[C@@H]2CC[C@H]1[C@@H](C(=O)N1CCC3(CC1)CN(c1ncncc1Oc1ccc(F)cc1C(=O)N(C(C)C)C(C)C)C3)N2` . Value?
5110
